These entries and their values trace back to ChEMBL document CHEMBL1137407.

- System: Caco-2
- Protocol: Apparent permeability from apical to basolateral side of Caco-2 cells
- Assay type: ADME, cell-based
- Particulars: human
Recorded endpoint: Papp (×10⁻⁶ cm/s)
Give the number; ×10⁻⁶ cm/s is assumed, so skip it.

Papp for `O=C(c1ccc(Cl)cc1NS(=O)(=O)c1cccc2nsnc12)N1CCCCC1` is 22.7

----------
- Protocol: Half life in Sprague-Dawley rat at 2 umol/kg, iv
- Assay type: ADME, organism-based
- Particulars: in vivo
Measured half-life, listed per entry.
Give the number; min is assumed, so skip it.

Study these solved cases before continuing.
O=C(c1ccc(Br)cc1NS(=O)(=O)c1cccc2nccnc12)N1CCCCC1 :: 20.4
O=C(c1ccc(Br)cc1NS(=O)(=O)c1cccc2nsnc12)N1CCCCC1 :: 15.6
O=C(c1cc(Cl)ccc1NS(=O)(=O)c1cccc2nsnc12)N1CCCCC1 :: 21
O=C(c1ccc(I)cc1NS(=O)(=O)c1cccc2nccnc12)N1CCOCC1 :: 37.2

half-life for `O=C(c1ccc(Cl)cc1NS(=O)(=O)c1cccc2nsnc12)N1CCCCC1` is 9.6

----------
- Protocol: Stability in human liver S9 fraction after 30 mins
- Type: ADME
- Particulars: read-out: Stability
Recorded endpoint: remaining at 0.5 h
Answer by giving the amount and then stating its unit.

remaining at 0.5 h for `O=C(c1ccc(Cl)cc1NS(=O)(=O)c1cccc2nsnc12)N1CCCCC1` is 51%

----------
- Protocol: Dissociation constant, pKa of the compound
- Format: physicochemical
Recorded endpoint: pKa
Hey, just send me the number, nothing else.

O=C(c1ccc(Cl)cc1NS(=O)(=O)c1cccc2nsnc12)N1CCCCC1 :: 5.47

Consider the record given below.
pKa for `O=C(c1ccc(Cl)cc1NS(=O)(=O)c1cccc2nonc12)N1CCCCC1` is 6.18

----------
- System name: Gastrin/cholecystokinin type B receptor (Homo sapiens, UniProt P32239)
- Sequence (P32239 whole entry): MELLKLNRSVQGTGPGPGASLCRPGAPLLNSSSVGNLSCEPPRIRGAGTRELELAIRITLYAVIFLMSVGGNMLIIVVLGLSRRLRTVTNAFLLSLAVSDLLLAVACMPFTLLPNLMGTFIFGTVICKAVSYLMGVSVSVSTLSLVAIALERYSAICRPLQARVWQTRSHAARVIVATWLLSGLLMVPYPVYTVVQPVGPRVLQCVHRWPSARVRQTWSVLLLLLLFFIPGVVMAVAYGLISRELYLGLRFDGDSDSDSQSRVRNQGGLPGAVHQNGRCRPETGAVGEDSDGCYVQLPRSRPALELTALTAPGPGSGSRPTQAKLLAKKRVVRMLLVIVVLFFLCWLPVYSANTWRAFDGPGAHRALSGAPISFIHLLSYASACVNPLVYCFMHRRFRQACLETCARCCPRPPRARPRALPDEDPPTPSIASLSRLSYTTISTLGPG
- Particulars: read-out: Log Ki (converted)
- Description: Displacement of [125I]CCK-8S from human CCK2R
Recorded endpoint: Ki (nM)
Give the number; nM is assumed, so skip it.

O=C(c1ccc(C(F)(F)F)cc1NS(=O)(=O)c1cccc2nsnc12)N1CCCCC1 :: 63.1
O=C(Nc1ccc(C(=O)N2CCCCC2)c(NS(=O)(=O)c2cccc3nsnc23)c1)c1ccccc1 :: 7940
COc1cc(C(=O)N2CCCCC2)c(NS(=O)(=O)c2cccc3nsnc23)cc1Cl :: 501
CN1CCN(C(=O)c2ccc(Cl)cc2NS(=O)(=O)c2cccc3nsnc23)CC1 :: 2510

Case `O=C(NCc1ccccc1)c1ccc(Cl)cc1NS(=O)(=O)c1cccc2nsnc12` , Gastrin/cholecystokinin type B receptor (Homo sapiens, UniProt P32239), Ki recorded as 2510

Case `O=C(c1ccc(-c2ccccc2)cc1NS(=O)(=O)c1cccc2nsnc12)N1CCCCC1` , Gastrin/cholecystokinin type B receptor (Homo sapiens, UniProt P32239), Ki recorded as 158

----------
- Organism: Rattus norvegicus
- Protocol: Plasma concentration in rat
- Assay type: ADME, organism-based
- Particulars: in vivo
Recorded endpoint: concentration (nM)
Give the number; nM is assumed, so skip it.

concentration for `O=C(c1ccc(Br)cc1NS(=O)(=O)c1cccc2nsnc12)N1CCCCC1` is 1300

----------
- Protocol: Stability in human liver microsome after 30 mins
- Format: ADME
- Particulars: liver microsomes, read-out: Stability
Recorded endpoint: remaining at 0.5 h (%)
Give the number; % is assumed, so skip it.

Study these solved cases before continuing.
O=C(c1ccc(Br)cc1NS(=O)(=O)c1cccc2nsnc12)N1CCCCC1 :: 15
O=C(c1ccc(Br)cc1NS(=O)(=O)c1cccc2nccnc12)N1CCCCC1 :: 21

remaining at 0.5 h for `O=C(c1ccc(I)cc1NS(=O)(=O)c1cccc2nccnc12)N1CCOCC1` is 60

remaining at 0.5 h for `O=C(c1ccc(Cl)cc1NS(=O)(=O)c1cccc2nsnc12)N1CCCCC1` is 3.9

remaining at 0.5 h for `O=C(c1cc(Cl)c(Cl)cc1NS(=O)(=O)c1cccc2nsnc12)N1CCCCC1` is 8

remaining at 0.5 h for `O=C(c1ccc(Cl)cc1NS(=O)(=O)c1cccc2nsnc12)N1CCCCCC1` is 11

remaining at 0.5 h for `O=C(c1cc(Cl)ccc1NS(=O)(=O)c1cccc2nsnc12)N1CCCCC1` is 16

remaining at 0.5 h for `CN(Cc1ccccc1)C(=O)c1ccc(Cl)cc1NS(=O)(=O)c1cccc2nsnc12` is 2.2

remaining at 0.5 h for CC1CCCCN1C(=O)c1ccc(Cl)cc1NS(=O)(=O)c1cccc2nsnc12 (centres undefined) is 14

----------
- System name: Gastrin/cholecystokinin type B receptor (Homo sapiens, UniProt P32239)
- Sequence (P32239 whole entry): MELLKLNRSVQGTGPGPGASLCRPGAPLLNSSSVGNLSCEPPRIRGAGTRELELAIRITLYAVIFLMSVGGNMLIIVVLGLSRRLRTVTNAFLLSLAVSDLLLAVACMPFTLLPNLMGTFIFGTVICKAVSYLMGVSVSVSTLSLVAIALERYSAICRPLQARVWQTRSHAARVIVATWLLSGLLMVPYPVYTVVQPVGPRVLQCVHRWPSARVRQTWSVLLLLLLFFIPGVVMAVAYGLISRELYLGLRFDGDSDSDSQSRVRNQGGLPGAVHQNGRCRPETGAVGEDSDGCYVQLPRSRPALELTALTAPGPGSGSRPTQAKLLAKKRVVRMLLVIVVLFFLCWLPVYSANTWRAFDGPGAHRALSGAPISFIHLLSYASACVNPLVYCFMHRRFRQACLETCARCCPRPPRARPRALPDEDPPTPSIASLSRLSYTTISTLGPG
- Particulars: read-out: Log Ki (converted)
Response field label: string, one of label 1 (Ki strictly below 1 µM) or label 0.

O=C(c1cc(Br)c(Br)cc1NS(=O)(=O)c1cccc2nsnc12)N1CCCCC1 :: label 1
O=C(N[C@@H](Cc1ccccc1)C(=O)O)c1ccccc1NS(=O)(=O)c1cc2ccccc2[nH]1 :: label 0
Cc1ccc2nsnc2c1S(=O)(=O)Nc1cc(Br)ccc1C(=O)N1CCCCC1 :: label 1

Asked: Answer whether the molecule `COc1cc(NS(=O)(=O)c2cccc3nsnc23)c(C(=O)N2CCCCC2)cc1OC` has Ki strictly less than 1 µM
Given back: label 0

Asked: Answer whether the molecule `C[C@H]1COC[C@H](C)N1C(=O)c1ccc(Cl)cc1NS(=O)(=O)c1cccc2nccnc12` has Ki strictly less than 1 µM
Given back: label 0

Asked: Answer whether the molecule `O=C(c1ccc(Cl)cc1NS(=O)(=O)c1cccc2nsnc12)N1CCC(CO)CC1` has Ki strictly less than 1 µM
Given back: label 0

Asked: Answer whether the molecule `O=C(c1ccc(Cl)cc1NS(=O)(=O)c1cccc2nsnc12)N1CCC(c2ccccc2)CC1` has Ki strictly less than 1 µM
Given back: label 1

Asked: Answer whether the molecule `O=C(c1cc2ccccc2cc1NS(=O)(=O)c1cccc2nsnc12)N1CCCCC1` has Ki strictly less than 1 µM
Given back: label 1

Asked: Answer whether the molecule `O=C(c1ccc(-c2ccco2)cc1NS(=O)(=O)c1cccc2nsnc12)N1CCCCC1` has Ki strictly less than 1 µM
Given back: label 1

----------
- System name: Gastrin/cholecystokinin type B receptor (Homo sapiens)
- Particulars: read-out: Log Ki (converted)
Response field label: string, one of t (Ki strictly below 1 µM) or f.

Examples from the recorded data:
O=C(c1ccc(Br)cc1NS(=O)(=O)c1cccc2nsnc12)N1CCOCC1 :: t
Cc1ccc(S(=O)(=O)Nc2cc(Br)ccc2C(=O)N2CCCCC2)c2nsnc12 :: t
O=C(c1ccc(NCc2ccccc2)cc1NS(=O)(=O)c1cccc2nsnc12)N1CCCCC1 :: f
CN(Cc1ccccc1)C(=O)c1ccc(Cl)cc1NS(=O)(=O)c1cccc2nsnc12 :: t
O=C(c1ccc(Br)cc1NS(=O)(=O)c1ccc(Br)c2nsnc12)N1CCCCC1 :: t
O=C(c1ccc(F)cc1NS(=O)(=O)c1cccc2nsnc12)N1CCOCC1 :: f

Asked: Answer whether the molecule `O=C(c1ccc(F)cc1NS(=O)(=O)c1cccc2nccnc12)N1CCOCC1` has Ki strictly less than 1 µM
Given back: f

Asked: Answer whether the molecule `O=C(c1ccc(Cl)cc1NS(=O)(=O)c1cccc2nsnc12)N1CCC1` has Ki strictly less than 1 µM
Given back: f

Asked: Answer whether the molecule `O=C(c1ccc(OC2CCCC2)cc1NS(=O)(=O)c1cccc2nsnc12)N1CCCCC1` has Ki strictly less than 1 µM
Given back: t
